tested on: Influenza B/TW/99/07; assay: Anti-influenza CPE neutralization test on MDCK cells; format: cell-based; settings: Influenza B virus, Influenza B/TW/99/07, CPE
Each record here notes measured IC50.
The response must be a number in nM with no trailing unit.

Some entries whose results are on file:
INSERT INTO assay_data (compound, reading_unit, result_number) VALUES
  ('Cc1cc(=O)oc2c1ccc1oc(C(=O)c3ccccc3)c(-c3ccccc3)c12', 'nM', 89),
  ('Cc1cc(=O)oc2c1ccc1oc(C(=O)c3cccs3)c(-c3ccccc3)c12', 'nM', 40);

Shifting focus to the compound that follows.
Query: IC50; subject: CC(=O)N[C@H]1[C@H]([C@H](O)[C@H](O)CO)OC(C(=O)O)=C[C@@H]1N=C(N)N [Relenza, Zanamivir, reference compound]
99

====

tested on: EBV; experiment: In vitro EBV assay, EBV reactivation in NA cells by anti-EBV-EAD immunofluorescence; type: cell-based, Epstein-Barr virus (EBV); conditions: human gammaherpesvirus 4; EBV reactivation by TPA/SB in NA cells, compound added 24 h before; read-out: EC50 (concentration reducing 50% of virus replication numbers)
pEC50: −log10 of the molar value.
Reported Property: pEC50

What value of pEC50 has been reported for the following compound? Cc1cc(=O)oc2c1ccc1oc(C(=O)c3ccccc3)c(-c3ccccc3)c12 [Compound 1]
> 6.30

====

assay: Cytotoxicity (CC50) of the compounds tested in the anti-HSV assay; type: cell-based; settings: African green monkey, Vero cells; Table 5; read-out: CC50 (μM), 50% cytotoxicity concentration
Reported Property: CC50

As a guide, the following entries are already answered.
INSERT INTO results (smi, reported_property, result) VALUES
  ('Cc1cccc(-c2c(C(=O)c3ccccc3)oc3ccc4c(C)cc(=O)oc4c23)c1', 'CC50', '> 100 µM'),
  ('Cc1cc(=O)oc2c1ccc1oc(C(=O)c3ccccc3)c(-c3ccc(F)cc3)c12', 'CC50', '> 100 µM'),
  ('Cc1cc(=O)oc2c1ccc1oc(C(=O)c3cccc(O)c3)c(-c3ccccc3)c12', 'CC50', '93.4 µM'),
  ('Cc1cc(=O)oc2c1ccc1oc(C(=O)c3cccs3)c(-c3ccccc3)c12', 'CC50', '> 100 µM');

Find the recorded CC50 belonging to Cc1cc(=O)oc2c1ccc1oc(C(=O)c3ccccc3)c(-c3ccc(Br)cc3)c12 and report it.
> 100 µM
